// each record: one item and its IC50 for Carboxylic ester hydrolase (Equus caballus, UniProt Q9N1N9)
Measurement Type: IC50 (µM)

1. CCOP(=O)(OCC)Oc1ccc(Br)cc1C(=O)Nc1ccc(F)cc1 22.7
2. CCOP(=O)(OCC)Oc1cc(Cl)ccc1C(=O)Nc1cccc(F)c1 11.5
3. CCOP(=O)(OCC)Oc1ccc(Br)cc1C(=O)Nc1ccc(Br)cc1 13
4. CCOP(=O)(OCC)Oc1ccc(Cl)cc1C(=O)Nc1cccc(C(F)(F)F)c1 24.8
5. CCOP(=O)(OCC)Oc1ccc(Cl)cc1C(=O)Nc1ccc(C(F)(F)F)cc1 20.9

====

// each record: one item and its IC50 for Acetylcholinesterase (Electrophorus electricus)
Measurement Type: IC50

1) CCOP(=O)(OCC)Oc1ccc(Br)cc1C(=O)Nc1ccc(Cl)cc1 45.5 µM
2) CCOP(=O)(OCC)Oc1ccc(Br)cc1C(=O)Nc1cccc(F)c1 69.8 µM
3) CCOP(=O)(OCC)Oc1ccc(Br)cc1C(=O)Nc1cccc(Br)c1 70.3 µM
4) CCOP(=O)(OCC)Oc1ccc(Br)cc1C(=O)Nc1cccc(C(F)(F)F)c1 46.1 µM
5) CCOP(=O)(OCC)Oc1cc(Cl)ccc1C(=O)Nc1ccc(C(F)(F)F)cc1 86.3 µM
6) CCOP(=O)(OCC)Oc1ccc(Cl)cc1C(=O)Nc1cccc(C(F)(F)F)c1 51.5 µM

====

pIC50: −log10 of the molar value.
// each record: one item and its pIC50 for Acetylcholinesterase (Electrophorus electricus)
Measurement Type: pIC50

1) CCOP(=O)(OCC)Oc1ccc(Cl)cc1C(=O)Nc1ccc(Cl)cc1 4.22
2) CCOP(=O)(OCC)Oc1ccc(Br)cc1C(=O)Nc1ccc(C(F)(F)F)cc1 4.25
3) CCOP(=O)(OCC)Oc1ccc(Br)cc1C(=O)Nc1ccc(F)cc1 4.27
4) CCOP(=O)(OCC)Oc1ccc(Cl)cc1C(=O)Nc1cccc(F)c1 4.21
5) CCOP(=O)(OCC)Oc1cc(Cl)ccc1C(=O)Nc1cccc(Cl)c1 4.39
6) CCOP(=O)(OCC)Oc1cc(Cl)ccc1C(=O)Nc1cccc(Br)c1 4.45
7) CCOP(=O)(OCC)Oc1ccc(Cl)cc1C(=O)Nc1ccc(Cl)c(Cl)c1 4.09
8) CCOP(=O)(OCC)Oc1ccc(Br)cc1C(=O)Nc1ccc(Cl)c(Cl)c1 4.26
9) CCOP(=O)(OCC)Oc1ccc(Cl)cc1C(=O)Nc1ccc(F)cc1 4.31
10) CCOP(=O)(OCC)Oc1ccc(Br)cc1C(=O)Nc1ccc(Br)cc1 4.29

====

- System Name: Carboxylic ester hydrolase (Equus caballus, UniProt Q9N1N9)
- Sequence (Q9N1N9 whole entry): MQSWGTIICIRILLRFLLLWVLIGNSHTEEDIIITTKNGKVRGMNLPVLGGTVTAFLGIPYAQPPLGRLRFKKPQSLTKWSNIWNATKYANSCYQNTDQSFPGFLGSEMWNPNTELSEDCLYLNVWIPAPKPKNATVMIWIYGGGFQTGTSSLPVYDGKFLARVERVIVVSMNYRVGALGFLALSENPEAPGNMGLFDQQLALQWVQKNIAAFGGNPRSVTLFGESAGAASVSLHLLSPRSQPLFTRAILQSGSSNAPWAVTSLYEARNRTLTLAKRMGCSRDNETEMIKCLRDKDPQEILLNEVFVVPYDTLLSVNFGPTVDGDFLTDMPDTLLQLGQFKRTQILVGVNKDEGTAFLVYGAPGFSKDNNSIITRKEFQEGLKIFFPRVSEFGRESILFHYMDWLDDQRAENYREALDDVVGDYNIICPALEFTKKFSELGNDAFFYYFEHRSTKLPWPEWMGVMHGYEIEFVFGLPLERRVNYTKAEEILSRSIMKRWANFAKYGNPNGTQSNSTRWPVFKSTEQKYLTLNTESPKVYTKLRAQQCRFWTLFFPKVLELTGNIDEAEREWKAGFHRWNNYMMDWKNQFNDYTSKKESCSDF
- Test Summary: Ellman's Method
Rule: IC50 below 20 µM gives MET. Equal to or above 20 µM gives NOT MET.

1. CCOP(=O)(OCC)Oc1cc(Cl)ccc1C(=O)Nc1ccc(F)cc1 MET
2. CCOP(=O)(OCC)Oc1ccc(Br)cc1C(=O)Nc1cccc(Cl)c1 NOT MET
3. CCOP(=O)(OCC)Oc1cc(Cl)ccc1C(=O)Nc1ccc(Cl)c(Cl)c1 MET
4. CCOP(=O)(OCC)Oc1cc(Cl)ccc1C(=O)Nc1cccc(C(F)(F)F)c1 MET
5. CCOP(=O)(OCC)Oc1cc(Cl)ccc1C(=O)Nc1cccc(Cl)c1 MET
6. CCOP(=O)(OCC)Oc1ccc(Br)cc1C(=O)Nc1cccc(F)c1 NOT MET
7. CCOP(=O)(OCC)Oc1ccc(Br)cc1C(=O)Nc1cccc(C(F)(F)F)c1 MET
8. CCOP(=O)(OCC)Oc1ccc(Br)cc1C(=O)Nc1ccc(C(F)(F)F)cc1 MET
9. CCOP(=O)(OCC)Oc1cc(Cl)ccc1C(=O)Nc1ccc(C(F)(F)F)cc1 MET
10. CCOP(=O)(OCC)Oc1ccc(Cl)cc1C(=O)Nc1ccc(Br)cc1 NOT MET
11. CCOP(=O)(OCC)Oc1ccc(Cl)cc1C(=O)Nc1cccc(F)c1 NOT MET
12. CCOP(=O)(OCC)Oc1cc(Cl)ccc1C(=O)Nc1cccc(Br)c1 MET
13. CCOP(=O)(OCC)Oc1cc(Cl)ccc1C(=O)Nc1ccc(Br)cc1 MET
14. CCOP(=O)(OCC)Oc1ccc(Br)cc1C(=O)Nc1ccc(Cl)c(Cl)c1 NOT MET
15. CCOP(=O)(OCC)Oc1ccc(Cl)cc1C(=O)Nc1ccc(Cl)c(Cl)c1 NOT MET
16. CCOP(=O)(OCC)Oc1ccc(Br)cc1C(=O)Nc1cccc(Br)c1 MET
17. CCOP(=O)(OCC)Oc1ccc(Cl)cc1C(=O)Nc1cccc(Cl)c1 NOT MET
18. CCOP(=O)(OCC)Oc1cc(Cl)ccc1C(=O)Nc1ccc(Cl)cc1 MET
19. CCOP(=O)(OCC)Oc1ccc(Cl)cc1C(=O)Nc1cccc(Br)c1 MET
20. CCOP(=O)(OCC)Oc1ccc(Cl)cc1C(=O)Nc1ccc(Cl)cc1 NOT MET

====

Catalogue of compounds with associated IC50
- System Name: UniProt O42275
Measurement Type: IC50 (µM)

1. CCOP(=O)(OCC)Oc1cc(Cl)ccc1C(=O)Nc1ccc(Br)cc1 55.1
2. CCOP(=O)(OCC)Oc1cc(Cl)ccc1C(=O)Nc1cccc(F)c1 60.2
3. CCOP(=O)(OCC)Oc1cc(Cl)ccc1C(=O)Nc1cccc(C(F)(F)F)c1 71.9
4. CCOP(=O)(OCC)Oc1cc(Cl)ccc1C(=O)Nc1ccc(Cl)c(Cl)c1 45.5
5. CCOP(=O)(OCC)Oc1ccc(Br)cc1C(=O)Nc1cccc(Cl)c1 79.9
6. CCOP(=O)(OCC)Oc1ccc(Cl)cc1C(=O)Nc1ccc(C(F)(F)F)cc1 41.6
7. CCOP(=O)(OCC)Oc1ccc(Cl)cc1C(=O)Nc1cccc(Cl)c1 64.3
8. CCOP(=O)(OCC)Oc1ccc(Cl)cc1C(=O)Nc1cccc(Br)c1 63.3
9. CCOP(=O)(OCC)Oc1ccc(Cl)cc1C(=O)Nc1ccc(Br)cc1 59.2
10. CCOP(=O)(OCC)Oc1cc(Cl)ccc1C(=O)Nc1ccc(Cl)cc1 60.9
11. CCOP(=O)(OCC)Oc1cc(Cl)ccc1C(=O)Nc1ccc(F)cc1 80.8
